Just for reference, patent US4510307A is where these values come from.

# EC50 listing for each entry below
- Test system: mesenteric artery
- Protocol Notes: Relaxation of Mesenteric Artery (isolated rabbit mesenteric artery contracted with KCl)
- Study Conditions: Oryctolagus cuniculus, concentration for 50% relaxation, KCl 15~20 mM contraction, read-out: Relaxation of Mesenteric Artery ED50
Endpoint Label: EC50 (nM)

molecule="CCOC(CN1CCN(S(=O)(=O)c2ccc3ncnc(N4CCCCC4)c3c2)CC1)c1ccccc1 (stereo not drawn)" endpoint_label=EC50 observed_measurement=1700
molecule="CCOC(CN1CCN(S(=O)(=O)c2ccc3ncnc(N(C)Cc4ccccc4)c3c2)CC1)c1ccccc1 (stereo not drawn)" endpoint_label=EC50 observed_measurement=800
molecule=NCCNS(=O)(=O)c1ccc2ncnc(N3CCCCC3)c2c1 endpoint_label=EC50 observed_measurement=33000
